Taken from the RNAGym collection of RNA variant scans (doi:10.1073/pnas.2313332121).

Listed here: items and their measured polymerase ribozyme fitness (log ratio).
B1: TPR t1 (parent)
chain: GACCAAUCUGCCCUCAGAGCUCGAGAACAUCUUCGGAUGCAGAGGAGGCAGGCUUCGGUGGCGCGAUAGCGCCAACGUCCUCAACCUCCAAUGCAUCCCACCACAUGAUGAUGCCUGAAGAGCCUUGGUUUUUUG

# Variants of: B1
# protocol-text: polymerase ribozyme fitness, log enrichment relative to wild type (log ratio); higher = more active; in vitro selection for triplet polymerase activity
result-type: polymerase ribozyme fitness (log ratio)

[
  {
    "variant-identifier": "C8A U112C U125A",
    "assay-value": 1.71
  },
  {
    "variant-identifier": "A5U C124A",
    "assay-value": 2.04
  },
  {
    "variant-identifier": "C94U U116C G128U",
    "assay-value": -3.48
  },
  {
    "variant-identifier": "G69C C73A",
    "assay-value": -1.18
  },
  {
    "variant-identifier": "C3A C8A C62A C97U",
    "assay-value": -2.46
  },
  {
    "variant-identifier": "A5C A26G C88U U116C U129A",
    "assay-value": -6.24
  },
  {
    "variant-identifier": "C20G G69U C99U",
    "assay-value": -5.06
  },
  {
    "variant-identifier": "U21G G48C G63A",
    "assay-value": -4.12
  },
  {
    "variant-identifier": "C3U C79A G117A",
    "assay-value": -4
  },
  {
    "variant-identifier": "C94A U112A",
    "assay-value": 1.02
  },
  {
    "variant-identifier": "C114G U133A",
    "assay-value": -2.37
  },
  {
    "variant-identifier": "C11U G63A",
    "assay-value": -1.15
  },
  {
    "variant-identifier": "C70G U130G U131G",
    "assay-value": -4.28
  },
  {
    "variant-identifier": "C13A U112A",
    "assay-value": -0.401
  },
  {
    "variant-identifier": "C8A C13U U38A C97A",
    "assay-value": -6.04
  },
  {
    "variant-identifier": "C73A C86U G128A",
    "assay-value": -1.81
  },
  {
    "variant-identifier": "C13A G23A A66G G69A U78C C85U A90U U96G C123U",
    "assay-value": -6.29
  },
  {
    "variant-identifier": "G71U U87C",
    "assay-value": -0.194
  },
  {
    "variant-identifier": "C8U A50U",
    "assay-value": -0.00813
  },
  {
    "variant-identifier": "A18U C72G C115U G128A",
    "assay-value": -4.57
  },
  {
    "variant-identifier": "G63A C82A",
    "assay-value": -2.53
  },
  {
    "variant-identifier": "G58C C124A",
    "assay-value": 1.82
  },
  {
    "variant-identifier": "A91C A118G",
    "assay-value": -2.33
  }
]
